Tested on: S. aureus (MRSA) USA300
procedureText: microbe, parasite or virus in culture
Format: cell-based, Staphylococcus aureus
conditionSet: S. aureus (MRSA) USA300 (R); shown in µM
attributeMeasured: Modal MIC (µM)
Numeric only. Scale: µM

INPUT: Indicate its recorded Modal MIC; the compound in question is `CC[C@H](C)[C@H](NC(=O)[C@H](C)NC(=O)[C@H](CCCCN)NC(=O)[C@@H]1CCCN1C(=O)[C@@H](NC(=O)[C@H](CC(C)C)NC(=O)[C@H](CO)NC(=O)[C@H](Cc1ccccc1)NC(=O)[C@H](CC(C)C)NC(=O)[C@@H](N)Cc1ccccc1)[C@@H](C)CC)C(=O)NCC(=O)NCC(=O)N[C@@H](CC(C)C)C(=O)N[C@H](C(=O)N[C@@H](CO)C(=O)N[C@@H](C)C(=O)N[C@@H](Cc1ccccc1)C(=O)N[C@@H](CCCCN)C(N)=O)[C@@H](C)CC`
OUTPUT: 4.1

###

Each entry below lists one item and its recorded MIC value.
Test system: C. glabrata NCPF 8018
procedureText: microbe, parasite or virus in culture
Type: cell-based
conditionSet: Nakaseomyces glabratus, NCPF8018, read-out: Modal MIC (antibiogram)
Experimental: […] The 46 peptides were serially diluted (128 to 2 μg/mL) in media down polypropylene 96-well plates. […] Plates were incubated at 37 °C for 20 h, and the optical density was determined spectrophotometrically at 600 nm. Minimum inhibition concentrations (MICs) were determined from a minimum of three biological repeats and are reported in μg/mL as well as μM. […]
Give a bare numeral; the unit µg/mL is implied.

// solved cases for MIC follow
C[C@@H](c1ncncc1F)[C@](O)(Cn1cncn1)c1ccc(F)cc1F [Voriconazole, reference compound]
0.125
C[C@@H]1[C@H](O)[C@@H](C)/C=C/C=C/C=C/C=C/C=C/C=C/C=C/[C@H](O[C@@H]2O[C@H](C)[C@@H](O)[C@H](N)[C@@H]2O)C[C@@H]2O[C@](O)(C[C@@H](O)C[C@@H](O)[C@H](O)CC[C@@H](O)C[C@@H](O)CC(=O)O[C@H]1C)C[C@H](O)[C@H]2C(=O)O [Amphotericin B, reference compound]
0.03

Now take the following molecule into account.
INPUT: Give the measured MIC for OC(Cn1cncn1)(Cn1cncn1)c1ccc(F)cc1F [Fluconazole, reference compound]
OUTPUT: 4

###

Test system: S. aureus (MRSA) USA300
procedureText: microbe, parasite or virus in culture
Assay type: cell-based, Staphylococcus aureus
conditionSet: S. aureus (MRSA) USA300 (R); shown in µM
Where a SMILES comes first, the peptide text is derived from it.
attributeMeasured: Modal MIC

As a guide, the following entries are already answered.
CC(C)[C@H](NC(=O)CNC(=O)[C@H](CCCNC(=N)N)NC(=O)[C@H](CCCNC(=N)N)NC(=O)[C@H](CS)NC(=O)[C@@H](NC(=O)[C@H](CS)NC(=O)[C@@H](N)CCCNC(=N)N)C(C)C)C(=O)N[C@@H](CS)C(=O)N[C@@H](CCCNC(=N)N)C(=O)N[C@@H](CS)C(=O)N[C@H](C(=O)N[C@@H](CS)C(=O)N[C@@H](CCCNC(=N)N)C(=O)N[C@@H](CCCNC(=N)N)C(N)=O)C(C)C [BTD15a] (H-RCVCRRGVCRCVCRR-NH2; N-terminus assumed)
4.4 µM
CC(C)C[C@H](NC(=O)[C@H](CCCCN)NC(=O)[C@H](CCCCN)NC(=O)[C@H](C)NC(=O)[C@H](CC(C)C)NC(=O)[C@H](CCCCN)NC(=O)[C@H](CO)NC(=O)[C@H](CCCCN)NC(=O)[C@H](Cc1c[nH]c2ccccc12)NC(=O)[C@H](C)NC(=O)[C@H](CCCCN)NC(=O)[C@H](CCCCN)NC(=O)[C@H](CC(C)C)NC(=O)[C@H](Cc1ccccc1)NC(=O)[C@H](CO)NC(=O)CN)C(N)=O [PS-PB-16a] (H-GSFLKKAWKSKLAKKL-NH2)
> 67.8 µM
CC[C@H](C)[C@H](NC(=O)[C@H](C)NC(=O)[C@H](CCCCN)NC(=O)[C@@H]1CCCN1C(=O)[C@@H](NC(=O)[C@H](CC(C)C)NC(=O)[C@H](CCCCN)NC(=O)[C@H](Cc1ccccc1)NC(=O)[C@H](CC(C)C)NC(=O)[C@@H](N)Cc1ccccc1)[C@@H](C)CC)C(=O)N[C@@H](CCCCN)C(=O)N[C@@H](CCCCN)C(=O)N[C@@H](CC(C)C)C(=O)N[C@H](C(=O)N[C@@H](CO)C(=O)N[C@@H](CCCCN)C(=O)N[C@@H](Cc1ccccc1)C(=O)N[C@@H](CCCCN)C(N)=O)[C@@H](C)CC [AamAP1-Lysa] (H-FLFKLIPKAIKKLISKFK-NH2)
1.8 µM

INPUT: Give the reported Modal MIC for this compound. CC[C@H](C)[C@H](N)C(=O)N[C@@H](CC(C)C)C(=O)NCC(=O)N[C@@H](CCCCN)C(=O)N[C@H](C(=O)N[C@@H](Cc1c[nH]c2ccccc12)C(=O)N[C@@H](CCCCN)C(=O)N1CCC[C@H]1C(=O)N[C@H](C(=O)N[C@@H](CCCCN)C(=O)N[C@@H](CCCCN)C(=O)N[C@@H](CC(C)C)C(=O)N[C@@H](Cc1ccccc1)C(N)=O)[C@@H](C)CC)[C@@H](C)CC [K7P8K11-IsCTa] (H-ILGKIWKPIKKLF-NH2)
OUTPUT: 39.5 µM

INPUT: Read the entry CC[C@H](C)[C@H](NC(=O)[C@H](CCCCN)NC(=O)[C@H](CC(C)C)NC(=O)[C@H](C)NC(=O)[C@H](C)NC(=O)[C@H](CCCCN)NC(=O)[C@H](CC(C)C)NC(=O)[C@H](C)NC(=O)[C@@H](N)CCCCN)C(=O)NCC(=O)N[C@@H](C)C(=O)N[C@@H](CC(N)=O)C(N)=O [CPF-P3-12a] (H-KALKAALKIGAN-NH2) and write its reported Modal MIC.
OUTPUT: > 103.8 µM
